# EXPERIMENT: Inhibition of Kca channel
PARAMETER MEASURED: IC50 (nM)
Write the answer as a number in nM, unit excluded.

stdin: Any idea what its IC50 is? The compound is c1ccc2c(c1)CCC[C@H]2Nc1nc2ccccc2[nH]1
stdout: 500

stdin: Any idea what its IC50 is? The compound is c1cc2cc(c1)C[n+]1ccc(c3ccccc31)NCc1ccc(cc1)CNc1cc[n+](c3ccccc13)C2
stdout: 3

stdin: Any idea what its IC50 is? The compound is Cc1cc(N)c2ccccc2[n+]1CCCCCCCCCC[n+]1c(C)cc(N)c2ccccc21 [DEQUALINIUM CHLORIDE]
stdout: 1000

====

# TESTED TARGET: Small conductance calcium-activated potassium channel protein 3 (Homo sapiens, UniProt Q9UGI6)
# Sequence (Q9UGI6 whole entry): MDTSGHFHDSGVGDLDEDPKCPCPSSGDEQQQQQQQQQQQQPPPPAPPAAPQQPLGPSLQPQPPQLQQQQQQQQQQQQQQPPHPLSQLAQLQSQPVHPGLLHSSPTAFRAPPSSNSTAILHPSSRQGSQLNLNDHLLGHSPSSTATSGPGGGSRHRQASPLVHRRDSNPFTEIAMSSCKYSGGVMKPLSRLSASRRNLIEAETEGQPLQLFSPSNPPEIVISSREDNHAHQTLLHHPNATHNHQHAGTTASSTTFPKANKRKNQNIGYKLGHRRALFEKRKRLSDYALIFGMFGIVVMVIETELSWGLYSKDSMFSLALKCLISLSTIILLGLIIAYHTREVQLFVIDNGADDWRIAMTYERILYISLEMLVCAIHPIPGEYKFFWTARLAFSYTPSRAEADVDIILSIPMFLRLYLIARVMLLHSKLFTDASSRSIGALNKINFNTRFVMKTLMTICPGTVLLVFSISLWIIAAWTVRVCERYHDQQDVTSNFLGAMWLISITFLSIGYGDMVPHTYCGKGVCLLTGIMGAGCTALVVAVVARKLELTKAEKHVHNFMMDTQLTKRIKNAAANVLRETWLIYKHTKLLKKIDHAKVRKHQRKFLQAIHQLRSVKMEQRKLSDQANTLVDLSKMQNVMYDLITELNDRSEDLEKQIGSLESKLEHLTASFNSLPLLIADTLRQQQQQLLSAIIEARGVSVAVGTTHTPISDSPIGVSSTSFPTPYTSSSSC
# EXPERIMENT: Inhibition of Kca2.3 channel expressed in HEK293 cells at 30 uM by thallium flux assay
# Assay type: cell-based
// bucketize inhibition: low bracket (below 10%), middle bracket (10% to below 30%), high bracket (30% or more)

stdin: Determine which band this compound sits in: c1ccc(-c2csc(-c3ccccn3)n2)nc1
stdout: middle bracket

stdin: Determine which band this compound sits in: Cc1ccnc(Nc2nc(-c3ccccn3)cs2)c1
stdout: high bracket

stdin: Determine which band this compound sits in: c1ccc(Nc2nc(-c3ccccn3)cs2)nc1
stdout: high bracket

stdin: Determine which band this compound sits in: c1ccc(Nc2nc(-c3ccccn3)cs2)cc1
stdout: low bracket

stdin: Determine which band this compound sits in: c1ccc(Nc2nc(-c3ccccc3)cs2)cc1
stdout: middle bracket

stdin: Determine which band this compound sits in: c1ccc(-c2csc(Nc3ncccn3)n2)nc1
stdout: middle bracket

stdin: Determine which band this compound sits in: c1ccc(Nc2nc(-c3cccnc3)cs2)nc1
stdout: middle bracket

stdin: Determine which band this compound sits in: c1ccc(Cc2nc(-c3ccccn3)cs2)nc1
stdout: middle bracket

stdin: Determine which band this compound sits in: Ic1ccc(Nc2nc(-c3ccccn3)cs2)nc1
stdout: middle bracket

stdin: Determine which band this compound sits in: c1ccc(-c2csc(Nc3ccncc3)n2)nc1
stdout: middle bracket

stdin: Determine which band this compound sits in: FC(F)(F)c1cnc(Nc2nc(-c3ccccn3)cs2)c(Cl)c1
stdout: low bracket

stdin: Determine which band this compound sits in: c1ccc(-c2csc(Nc3cccnc3)n2)nc1
stdout: high bracket

====

# TESTED TARGET: Small conductance calcium-activated potassium channel protein 2 (Homo sapiens)
# EXPERIMENT: Inhibition of Kca2.2 channel expressed in HEK293 cells by thallium flux assay
# Assay type: cell-based
PARAMETER MEASURED: pIC50
Schema: pIC50 number; meaning minus log10 of the concentration expressed in molar units.

stdin: Recorded pIC50 for c1ccc(Nc2nc(-c3ccccn3)cs2)nc1 with Small conductance calcium-activated potassium channel protein 2 (Homo sapiens), please?
stdout: 6.91

====

# TESTED TARGET: Small conductance calcium-activated potassium channel protein 3 (Homo sapiens, UniProt Q9UGI6)
# EXPERIMENT: Inhibition of Kca2.3 channel expressed in HEK293 cells by thallium flux assay
# Type: cell-based
I'd appreciate it if you could supply IC50 values for the items below.

stdin: Any idea what its IC50 is? The molecule is Cc1cc(N)c2ccccc2[n+]1CCCCCCCCCC[n+]1c(C)cc(N)c2ccccc21 [DEQUALINIUM CHLORIDE]
stdout: 1.3 µM

stdin: Any idea what its IC50 is? The molecule is c1ccc(Cc2nc(-c3ccccn3)cs2)nc1
stdout: > 30 µM

stdin: Any idea what its IC50 is? The molecule is c1ccc(-c2csc(-c3ccccn3)n2)nc1
stdout: > 30 µM

stdin: Any idea what its IC50 is? The molecule is c1ccc(-c2csc(Nc3ccncc3)n2)nc1
stdout: > 30 µM

stdin: Any idea what its IC50 is? The molecule is Ic1ccc(Nc2nc(-c3ccccn3)cs2)nc1
stdout: > 30 µM

stdin: Any idea what its IC50 is? The molecule is c1ccc(Nc2nc(-c3cccnc3)cs2)nc1
stdout: > 30 µM

stdin: Any idea what its IC50 is? The molecule is c1ccc(Nc2nc(-c3ccccc3)cs2)cc1
stdout: > 30 µM

stdin: Any idea what its IC50 is? The molecule is c1ccc(-c2csc(Nc3ncccn3)n2)nc1
stdout: > 30 µM

stdin: Any idea what its IC50 is? The molecule is c1ccc(Nc2nc(-c3ccccn3)cs2)nc1
stdout: 0.543 µM

stdin: Any idea what its IC50 is? The molecule is c1ccc(Nc2nc(-c3ccncc3)cs2)nc1
stdout: > 30 µM

stdin: Any idea what its IC50 is? The molecule is FC(F)(F)c1cnc(Nc2nc(-c3ccccn3)cs2)c(Cl)c1
stdout: > 30 µM

====

# TESTED TARGET: Small conductance calcium-activated potassium channel protein 1 (Homo sapiens, UniProt Q92952)
# Sequence (Q92952 whole entry): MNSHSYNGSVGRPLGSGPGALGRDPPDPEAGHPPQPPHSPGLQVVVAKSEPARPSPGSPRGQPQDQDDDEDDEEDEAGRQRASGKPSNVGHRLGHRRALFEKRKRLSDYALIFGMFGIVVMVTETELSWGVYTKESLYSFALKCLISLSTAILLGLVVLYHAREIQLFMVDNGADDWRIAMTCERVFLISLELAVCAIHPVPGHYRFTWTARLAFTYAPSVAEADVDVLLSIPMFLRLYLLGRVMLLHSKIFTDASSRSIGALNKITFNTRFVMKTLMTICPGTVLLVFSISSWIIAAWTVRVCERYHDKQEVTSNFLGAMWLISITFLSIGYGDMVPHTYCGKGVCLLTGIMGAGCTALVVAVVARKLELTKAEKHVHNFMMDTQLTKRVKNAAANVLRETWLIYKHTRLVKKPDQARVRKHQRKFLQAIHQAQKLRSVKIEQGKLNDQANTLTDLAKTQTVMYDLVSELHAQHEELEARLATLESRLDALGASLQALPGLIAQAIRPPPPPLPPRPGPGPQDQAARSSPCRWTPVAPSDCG
# EXPERIMENT: Inhibition of Kca2.1 channel expressed in HEK293 cells by thallium flux assay
PARAMETER MEASURED: IC50 (nM)
Write the answer as a number in nM, unit excluded.

stdin: Any idea what its IC50 is? The compound is c1ccc(Nc2nc(-c3ccccn3)cs2)nc1
stdout: 43

====

# TESTED TARGET: Small conductance calcium-activated potassium channel protein 2 (Homo sapiens, UniProt Q9H2S1)
# Sequence (Q9H2S1 whole entry): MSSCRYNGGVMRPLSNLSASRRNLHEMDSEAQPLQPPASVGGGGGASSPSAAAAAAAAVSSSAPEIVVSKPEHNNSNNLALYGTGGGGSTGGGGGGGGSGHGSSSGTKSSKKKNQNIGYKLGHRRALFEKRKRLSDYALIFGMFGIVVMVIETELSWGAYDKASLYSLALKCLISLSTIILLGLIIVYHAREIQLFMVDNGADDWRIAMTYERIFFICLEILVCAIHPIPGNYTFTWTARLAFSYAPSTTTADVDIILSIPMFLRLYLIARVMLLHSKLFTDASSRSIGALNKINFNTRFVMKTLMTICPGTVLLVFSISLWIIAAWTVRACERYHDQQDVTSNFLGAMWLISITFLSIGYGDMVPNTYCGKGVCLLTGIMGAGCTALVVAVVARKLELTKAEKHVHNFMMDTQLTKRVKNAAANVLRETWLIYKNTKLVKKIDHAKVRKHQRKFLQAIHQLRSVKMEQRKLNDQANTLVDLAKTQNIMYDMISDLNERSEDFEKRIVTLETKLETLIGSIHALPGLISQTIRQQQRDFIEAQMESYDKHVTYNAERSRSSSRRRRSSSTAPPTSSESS
# EXPERIMENT: Displacement of [125I]apamin from Kca2.2 channel expressed in HEK293 cells
# Assay type: cell-based
PARAMETER MEASURED: IC50 (nM)
Write the answer as a number in nM, unit excluded.

stdin: Any idea what its IC50 is? The molecule is c1ccc(Nc2nc(-c3ccccn3)cs2)nc1
stdout: 543

====

I'd appreciate it if you could supply IC50 values for the items below.
# TESTED TARGET: Small conductance calcium-activated potassium channel protein 3 (Homo sapiens, UniProt Q9UGI6)
# EXPERIMENT: Inhibition of Kca2.3 channel expressed in HEK293 cells by electrophysiology assay
# Type: cell-based
Phrase the answer as number then unit, nothing more needed.

stdin: Any idea what its IC50 is? The molecule is Cc1cc(N)c2ccccc2[n+]1CCCCCCCCCC[n+]1c(C)cc(N)c2ccccc21 [DEQUALINIUM CHLORIDE]
stdout: 2000 nM

stdin: Any idea what its IC50 is? The molecule is c1ccc(Nc2nc(-c3ccccn3)cs2)nc1
stdout: 290 nM
